- assay-protocol: self-splicing fitness, log relative to wild type (ln ratio); higher = more splicing; Tetrahymena group I intron in knt gene, E. coli kanamycin selection, DiMSum; sequences stand for … in CUCUCU…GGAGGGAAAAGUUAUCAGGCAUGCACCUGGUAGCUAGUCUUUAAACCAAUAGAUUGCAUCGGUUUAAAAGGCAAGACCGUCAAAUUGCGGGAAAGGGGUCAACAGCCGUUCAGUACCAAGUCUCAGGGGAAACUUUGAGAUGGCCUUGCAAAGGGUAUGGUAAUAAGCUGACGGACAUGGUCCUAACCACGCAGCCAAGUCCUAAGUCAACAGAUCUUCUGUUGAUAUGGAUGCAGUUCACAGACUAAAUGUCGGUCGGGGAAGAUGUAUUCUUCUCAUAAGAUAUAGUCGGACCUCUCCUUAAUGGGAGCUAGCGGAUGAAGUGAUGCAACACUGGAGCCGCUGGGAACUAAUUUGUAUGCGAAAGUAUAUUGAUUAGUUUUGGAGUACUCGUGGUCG;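 note: selection with 25 µg/mL kanamycin versus none on LB agar overnight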
- run-parameters: 30 °C
Listed next: entries and their corresponding self-splicing fitness (ln).
Form field (numeric): enter value without unit.

{"ordered-residues": "CACUAGCAAUAUUACGUUUC", "assay-value": -4.29}
{"ordered-residues": "AGCCAGCAAUAUUACGUUAC", "assay-value": -4.34}

# lookup: self-splicing fitness (ln) of "UGGGAGCAAUAUUACGACGG"
-2.22

Dear colleague, I am looking for the recorded self-splicing fitness (ln) of the following sequence: "CUCAAGCAAUAUUACGUGCG"
-2.81

----------
- assay-protocol: self-splicing fitness, log relative to wild type (ln ratio); higher = more splicing; Tetrahymena group I intron in knt gene, E. coli kanamycin selection, DiMSum; sequences stand for … in CUCUCU…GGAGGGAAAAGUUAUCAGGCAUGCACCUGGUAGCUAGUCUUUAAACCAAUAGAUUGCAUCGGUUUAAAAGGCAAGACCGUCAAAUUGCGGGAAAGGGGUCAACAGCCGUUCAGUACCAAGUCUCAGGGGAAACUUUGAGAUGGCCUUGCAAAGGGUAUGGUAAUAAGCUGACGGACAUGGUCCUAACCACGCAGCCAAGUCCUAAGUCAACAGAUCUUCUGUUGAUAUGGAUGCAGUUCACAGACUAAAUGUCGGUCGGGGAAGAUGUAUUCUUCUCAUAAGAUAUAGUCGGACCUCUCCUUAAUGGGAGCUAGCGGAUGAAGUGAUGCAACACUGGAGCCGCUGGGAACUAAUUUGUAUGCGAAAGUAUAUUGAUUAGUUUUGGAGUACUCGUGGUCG
- run-parameters: 37 °C
observed-property: self-splicing fitness (ln)
Could you respond with only the numeric value?

The cases that follow already have their self-splicing fitness (ln) on record.
{"ordered-residues": "GACAAGCAAUAUUACGUCUG", "assay-value": -2.89}
{"ordered-residues": "UGAGAGCAAUAUUACGGUUC", "assay-value": -1.5}
{"ordered-residues": "UCGGAGCAAUAUUACGUGGA", "assay-value": -1.48}
{"ordered-residues": "UCAGAGCAAUAUUACGUUUU", "assay-value": -3.13}
{"ordered-residues": "CAACAGCAAUAUUACGCUCU", "assay-value": -0.581}

Give the measured self-splicing fitness (ln) of "UAGUAGCAAUAUUACGAAGC" .
-1.73

Recorded self-splicing fitness (ln) of "AGUGAGCAAUAUUACGCUGC" , please.
-2.44

----------
- assay-protocol: self-splicing fitness, log relative to wild type (ln ratio); higher = more splicing; Tetrahymena group I intron in knt gene, E. coli kanamycin selection, DiMSum; sequences stand for … in CUCUCU…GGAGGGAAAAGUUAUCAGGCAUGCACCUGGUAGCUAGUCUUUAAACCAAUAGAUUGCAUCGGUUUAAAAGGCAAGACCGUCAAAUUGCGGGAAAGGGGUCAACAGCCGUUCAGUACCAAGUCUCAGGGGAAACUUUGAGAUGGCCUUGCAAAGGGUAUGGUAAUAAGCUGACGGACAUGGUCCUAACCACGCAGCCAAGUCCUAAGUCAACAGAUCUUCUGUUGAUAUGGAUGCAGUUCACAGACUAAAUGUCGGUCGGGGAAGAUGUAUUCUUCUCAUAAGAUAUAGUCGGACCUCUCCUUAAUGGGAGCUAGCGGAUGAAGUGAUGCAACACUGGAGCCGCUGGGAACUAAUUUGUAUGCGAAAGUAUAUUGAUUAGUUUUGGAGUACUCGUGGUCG
- run-parameters: 37 °C
Please use the following self-splicing fitness (ln) ranges when assigning a class: L (below -2), M (-2 to below -0.6), H (-0.6 or more)

{"ordered-residues": "GCGAAGCAAUAUUACGCGAC", "label": "M"}
{"ordered-residues": "CCUUAGCAAUAUUACGGUGA", "label": "L"}
{"ordered-residues": "UCGUAGCAAUAUUACGCGCA", "label": "H"}

Sort into band: "UCUCAGCAAUAUUACGUCCU"
L

Form field 'band' for "GUUAAGCAAUAUUACGUCUU"
H

State the band of "UGUGAGCAAUAUUACGAAAC"
M

Which band does "UGCAAGCAAUAUUACGCGCU" fall in?
M

In plain terms, what class is "CAAGAGCAAUAUUACGCGGC" ?
L

Which class holds "CUUAAGCAAUAUUACGAUGC" ?
L

Class? Entry: "CACCAGCAAUAUUACGCAUU"
M

Which self-splicing fitness (ln) category applies to "UCAAAGCAAUAUUACGUGCG" here?
H

Textbook exercise: identify the category of the sequence given here, "UUGAAGCAAUAUUACGGACU" , according to its measured value.
H

For "GAGAAGCAAUAUUACGACGA" , which self-splicing fitness (ln) bin applies?
H

Note: place this sequence into its band. Item: "GUGCAGCAAUAUUACGAGCG"
H

----------
- assay-protocol: self-splicing fitness, log relative to wild type (ln ratio); higher = more splicing; Tetrahymena group I intron in knt gene, E. coli kanamycin selection, DiMSum; sequences stand for … in CUCUCU…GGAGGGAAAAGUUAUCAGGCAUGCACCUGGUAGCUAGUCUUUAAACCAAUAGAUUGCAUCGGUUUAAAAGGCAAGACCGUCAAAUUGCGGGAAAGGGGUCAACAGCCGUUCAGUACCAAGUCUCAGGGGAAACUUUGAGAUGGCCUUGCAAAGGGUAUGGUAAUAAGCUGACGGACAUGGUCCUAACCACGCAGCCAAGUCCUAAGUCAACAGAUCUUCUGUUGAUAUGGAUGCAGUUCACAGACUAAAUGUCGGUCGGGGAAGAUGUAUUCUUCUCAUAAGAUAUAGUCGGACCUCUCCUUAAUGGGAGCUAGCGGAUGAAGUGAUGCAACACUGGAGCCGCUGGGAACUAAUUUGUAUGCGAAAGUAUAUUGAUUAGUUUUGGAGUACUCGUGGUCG
- run-parameters: 37 °C
Quick reference for self-splicing fitness (ln) among some sequences

{"ordered-residues": "GUUUAGCAAUAUUACGCUUA", "self-splicing fitness (ln)": -0.129}
{"ordered-residues": "CGGCAGCAAUAUUACGUAUG", "self-splicing fitness (ln)": -0.303}
{"ordered-residues": "UUCCAGCAAUAUUACGUGGA", "self-splicing fitness (ln)": -2.95}
{"ordered-residues": "AUGAAGCAAUAUUACGACCU", "self-splicing fitness (ln)": 1.08}
{"ordered-residues": "GGGUAGCAAUAUUACGUCUC", "self-splicing fitness (ln)": 0.223}

Return reported self-splicing fitness (ln); argument: "CCAUAGCAAUAUUACGUAAC"
-2.7

Can you look up the measured self-splicing fitness (ln) of "GCUUAGCAAUAUUACGAAUG" for me?
-1.33

Look at this sequence and give its reported self-splicing fitness (ln). "CCCCAGCAAUAUUACGCCAA"
-2.7

Entry "CUCGAGCAAUAUUACGGUUC" : reported self-splicing fitness (ln) = ?
-2.49

----------
- assay-protocol: self-splicing fitness, log relative to wild type (ln ratio); higher = more splicing; Tetrahymena group I intron in knt gene, E. coli kanamycin selection, DiMSum; sequences stand for … in CUCUCU…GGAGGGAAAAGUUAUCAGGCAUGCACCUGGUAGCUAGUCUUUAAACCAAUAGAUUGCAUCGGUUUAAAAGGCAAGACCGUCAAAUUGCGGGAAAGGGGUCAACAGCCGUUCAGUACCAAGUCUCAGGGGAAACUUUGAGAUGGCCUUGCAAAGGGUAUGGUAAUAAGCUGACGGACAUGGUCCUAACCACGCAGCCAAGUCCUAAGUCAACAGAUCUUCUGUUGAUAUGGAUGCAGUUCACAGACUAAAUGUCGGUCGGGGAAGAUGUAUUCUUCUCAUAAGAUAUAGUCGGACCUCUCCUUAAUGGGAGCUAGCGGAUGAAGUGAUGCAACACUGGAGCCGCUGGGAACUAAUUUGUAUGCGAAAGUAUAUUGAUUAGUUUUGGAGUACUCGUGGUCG
- run-parameters: 37 °C
observed-property: self-splicing fitness (ln)
Output spec: single numeric token, no unit.

{"ordered-residues": "AAGAAGCAAUAUUACGUUGU", "self-splicing fitness (ln)": -2.06}
{"ordered-residues": "CGUCAGCAAUAUUACGCACA", "self-splicing fitness (ln)": 0.0106}
{"ordered-residues": "CUCUAGCAAUAUUACGUAGA", "self-splicing fitness (ln)": -1.6}

Here is another sequence to look at.
Reported self-splicing fitness (ln), sequence "AGCUAGCAAUAUUACGCGUA" : ____
-0.709
